MEASURED ON: Sulfonylurea receptor 2, Kir6.2 (Homo sapiens) (UniProt Q14654+O60706)
TEST SUMMARY: Ability to open human urinary bladder Kir6.2 containing SUR2B in Ltk cells by FLIPR assay relative to P1075
Format: functional, cell-based
MEASUREMENT LABEL: Efficacy

# annotated cases, reported Efficacy shown
# COMPOUND, MEASURED ON, Efficacy
rows = [
    ("C[C@H]1OC(=O)C2=C1NC1=C([C@H]2c2ccc(F)c(Br)c2)S(=O)(=O)CCC1 (relative stereo)", "Sulfonylurea receptor 2, Kir6.2 (Homo sapiens) (UniProt Q14654+O60706)", "99%"),
    ("CCC[C@H]1OC(O)=C2C1=NC1=C(C(=O)COC1)[C@H]2c1ccc(Br)c(Cl)c1 (stereo in doubt; 44a)", "Sulfonylurea receptor 2, Kir6.2 (Homo sapiens) (UniProt Q14654+O60706)", "121%"),
    ("CC[C@H]1OCC(O)=C2C1=NC1=C(C(=O)COC1)[C@H]2c1ccc(Br)c(Cl)c1 (racemic)", "Sulfonylurea receptor 2, Kir6.2 (Homo sapiens) (UniProt Q14654+O60706)", "46%"),
]

Value sought for every listed compound: Efficacy.
1. CCC[C@H]1OC(O)=C2C1=NC1=C(C(=O)COC1)[C@H]2c1ccc(Cl)c(Br)c1 (stereo in doubt; 43a)
2. C[C@@H]1OCC2=C(C1=O)[C@H](c1ccc(F)c(Br)c1)C1=C(O)OCC1=N2 (stereo in doubt; 8b)
3. CC1(C)OCC2=C(C1=O)C(c1ccc(F)c(Br)c1)C1=C(O)OCC1=N2 (stereo in doubt; 9)
4. CCC[C@H]1OC(O)=C2C1=NC1=C(C(=O)COC1)[C@H]2c1ccc(F)c(Cl)c1 (racemic)
5. CCC[C@H]1OC(O)=C2C1=NC1=C(C(=O)COC1)[C@H]2c1ccc(Cl)c(Cl)c1 (stereo in doubt; 42b)
6. CCCC[C@H]1OC(O)=C2C1=NC1=C(C(=O)COC1)[C@H]2c1ccc(F)c(Br)c1 (stereo in doubt; 29b)
7. C[C@@H]1OCC2=C(C1=O)[C@@H](c1ccc(F)c(Br)c1)C1=C(O)OCC1=N2 (racemic)
8. O=C1COCC2=C1C(c1ccc(F)c(Br)c1)C1=C(O)OCC1=N2 (stereo in doubt; 6b)

-- reply
1: 90%; 2: 16%; 3: 86%; 4: 42%; 5: 62%; 6: 68%; 7: 81%; 8: 101%

----------
MEASURED ON: Sulfonylurea receptor 2, Kir6.2 (Homo sapiens, UniProt O60706+Q14654)
Sequence (Q14654 whole entry): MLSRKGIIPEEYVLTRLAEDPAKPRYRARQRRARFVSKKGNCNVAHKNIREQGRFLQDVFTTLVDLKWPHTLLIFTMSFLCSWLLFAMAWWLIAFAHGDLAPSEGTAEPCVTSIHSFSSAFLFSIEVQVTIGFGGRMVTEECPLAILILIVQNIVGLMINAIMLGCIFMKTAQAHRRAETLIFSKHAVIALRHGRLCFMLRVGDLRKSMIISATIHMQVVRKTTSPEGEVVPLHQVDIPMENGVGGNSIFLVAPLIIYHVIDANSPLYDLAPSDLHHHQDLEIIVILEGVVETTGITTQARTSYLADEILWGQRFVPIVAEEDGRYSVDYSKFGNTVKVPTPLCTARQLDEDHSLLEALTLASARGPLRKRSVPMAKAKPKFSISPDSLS
Sequence (O60706 whole entry): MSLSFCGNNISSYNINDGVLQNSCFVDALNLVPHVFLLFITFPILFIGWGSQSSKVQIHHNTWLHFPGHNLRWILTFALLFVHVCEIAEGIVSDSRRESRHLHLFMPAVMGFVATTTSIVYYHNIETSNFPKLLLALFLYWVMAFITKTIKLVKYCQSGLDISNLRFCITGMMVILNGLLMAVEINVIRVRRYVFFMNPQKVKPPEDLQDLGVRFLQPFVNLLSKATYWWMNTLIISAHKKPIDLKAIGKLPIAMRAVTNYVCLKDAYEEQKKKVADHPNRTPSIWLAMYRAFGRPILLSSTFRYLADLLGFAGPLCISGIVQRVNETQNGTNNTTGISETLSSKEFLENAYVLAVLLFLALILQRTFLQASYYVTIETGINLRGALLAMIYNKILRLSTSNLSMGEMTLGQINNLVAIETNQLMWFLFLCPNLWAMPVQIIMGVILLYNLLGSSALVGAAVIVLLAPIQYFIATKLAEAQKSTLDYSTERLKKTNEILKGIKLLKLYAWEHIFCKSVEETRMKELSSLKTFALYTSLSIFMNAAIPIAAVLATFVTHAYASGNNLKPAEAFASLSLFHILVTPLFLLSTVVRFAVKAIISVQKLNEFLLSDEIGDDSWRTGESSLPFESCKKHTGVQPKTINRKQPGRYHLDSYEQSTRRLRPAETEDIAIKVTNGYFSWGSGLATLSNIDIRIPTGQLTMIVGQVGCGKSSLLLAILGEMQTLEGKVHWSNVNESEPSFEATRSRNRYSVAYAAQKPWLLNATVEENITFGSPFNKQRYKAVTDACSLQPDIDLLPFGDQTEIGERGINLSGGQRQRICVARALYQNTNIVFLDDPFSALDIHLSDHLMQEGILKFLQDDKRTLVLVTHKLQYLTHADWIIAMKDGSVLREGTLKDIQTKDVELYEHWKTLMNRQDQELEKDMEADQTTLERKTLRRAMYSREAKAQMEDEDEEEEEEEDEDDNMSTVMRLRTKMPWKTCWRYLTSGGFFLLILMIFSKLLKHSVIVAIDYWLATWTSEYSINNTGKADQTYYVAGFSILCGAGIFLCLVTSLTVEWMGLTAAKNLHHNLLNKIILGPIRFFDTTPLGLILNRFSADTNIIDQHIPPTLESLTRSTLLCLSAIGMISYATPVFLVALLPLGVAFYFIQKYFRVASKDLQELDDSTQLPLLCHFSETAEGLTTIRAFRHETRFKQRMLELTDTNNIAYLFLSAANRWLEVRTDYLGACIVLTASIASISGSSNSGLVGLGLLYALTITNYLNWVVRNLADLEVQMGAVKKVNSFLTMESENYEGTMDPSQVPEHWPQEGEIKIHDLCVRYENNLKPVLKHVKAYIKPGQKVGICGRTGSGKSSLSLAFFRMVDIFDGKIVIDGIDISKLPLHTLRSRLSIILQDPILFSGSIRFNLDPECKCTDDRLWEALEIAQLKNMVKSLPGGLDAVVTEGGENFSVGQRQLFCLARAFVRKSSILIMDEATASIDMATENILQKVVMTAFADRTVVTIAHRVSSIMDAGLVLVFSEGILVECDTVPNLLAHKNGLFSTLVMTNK
TEST SUMMARY: Ability to open human urinary bladder Kir6.2 channel containing SUR2B in Ltk cells by FLIPR assay
Format: functional, cell-based
pEC50: −log10 of the molar value.
Binary classification by pEC50, with 6 as an inclusive lower bound for 1; all other cases are 0.

Look over these answered cases.
# COMPOUND, MEASURED ON, CATEGORY LABEL
rows = [
    ("CC[C@H]1OC(O)=C2C1=NC1=C(C(=O)COC1)[C@H]2c1ccc(F)c(Br)c1 (stereo in doubt; 21b)", "Sulfonylurea receptor 2, Kir6.2 (Homo sapiens, UniProt O60706+Q14654)", 1),
    ("CC1(C)OCC(=O)C2=C1N=C1COC(O)=C1C2c1ccc(F)c(Br)c1 (stereo not drawn)", "Sulfonylurea receptor 2, Kir6.2 (Homo sapiens, UniProt O60706+Q14654)", 1),
    ("CC[C@H]1OCC(O)=C2C1=NC1=C(C(=O)COC1)[C@H]2c1ccc(F)c(Br)c1 (stereo in doubt; 71b)", "Sulfonylurea receptor 2, Kir6.2 (Homo sapiens, UniProt O60706+Q14654)", 0),
    ("COC[C@@H]1OC(O)=C2C1=NC1=C(C(=O)COC1)[C@H]2c1ccc(F)c(Br)c1 (relative stereo)", "Sulfonylurea receptor 2, Kir6.2 (Homo sapiens, UniProt O60706+Q14654)", 1),
    ("CC[C@@H]1OC(O)=C2C1=NC1=C(C(=O)CCC1)[C@H]2c1ccc(F)c(Br)c1 (relative stereo)", "Sulfonylurea receptor 2, Kir6.2 (Homo sapiens, UniProt O60706+Q14654)", 1),
]

-- ask Answer whether pEC50 of CC[C@H]1OCC(O)=C2C1=NC1=C(C(=O)COC1)[C@H]2c1ccc(C)c(Br)c1 (stereo in doubt; 78b) is greater than or equal to 6.
-- reply 0

-- ask Answer whether pEC50 of CC[C@H]1OC(O)=C2C1=NC1=C(C(=O)COC1(C)C)[C@H]2c1ccc(F)c(Br)c1 (racemic) is greater than or equal to 6.
-- reply 0

----------
MEASURED ON: Sulfonylurea receptor 2, Kir6.2 (Homo sapiens) (UniProt Q14654+O60706)
TEST SUMMARY: Activity against pig bladder KATP channel opening assessed as ability to relax field-stimulated pig detrusor relative to P1075
Type: functional
CONDITION SET: Sus scrofa; target entry is the homologue from another species
Provide the reported Efficacy of each item.
Answers are plain numbers, in %.

# annotated cases, reported Efficacy shown
# COMPOUND, MEASURED ON, UNIT TAG, Efficacy
measured = [
    ("CC[C@@H]1OCC2=C(C1=O)[C@@H](c1ccc(F)c(Br)c1)C1=C(O)OCC1=N2 (stereo in doubt; 10a)", "Sulfonylurea receptor 2, Kir6.2 (Homo sapiens) (UniProt Q14654+O60706)", "%", 86),
    ("CC[C@H]1OC(O)=C2C1=NC1=C(C(=O)COC1)[C@H]2c1ccc(F)c(Br)c1 (racemic)", "Sulfonylurea receptor 2, Kir6.2 (Homo sapiens) (UniProt Q14654+O60706)", "%", 88),
]

Value sought for every listed compound: Efficacy.
1. CCC[C@H]1OC(O)=C2C1=NC1=C(C(=O)COC1)[C@H]2c1ccc(F)c(Cl)c1 (stereo in doubt; 39b)
2. CC1(C)Oc2ccc(C#N)cc2[C@H](N2CCCC2=O)[C@H]1O (single isomer, unassigned)
3. CC[C@H]1OCC(O)=C2C1=NC1=C(C(=O)COC1)[C@H]2c1ccc(F)c(Br)c1 (stereo in doubt; 71a)
4. O=C1COCC2=C1C(c1ccc(F)c(Br)c1)C1=C(O)COCC1=N2 (stereo unspecified)
5. O=C1COCC2=C1C(c1ccc(F)c(Br)c1)C1=C(O)OCC1=N2 (stereo in doubt; 6b)
6. O=C1COCC2=C1[C@@H](c1ccc(F)c(Br)c1)C1=C(COC1=O)N2
7. CC[C@H]1OC(O)=C2C1=NC1=C(C(=O)COC1)[C@H]2c1ccc(F)c(Br)c1 (stereo in doubt; 21a)

-- reply
1: 66; 2: 99; 3: 54; 4: 97; 5: 88; 6: 95; 7: 94

----------
MEASURED ON: Sulfonylurea receptor 2, Kir6.2 (Homo sapiens) (UniProt Q14654+O60706)
TEST SUMMARY: Ability to open human urinary bladder Kir6.2 containing SUR2B in Ltk cells by FLIPR assay relative to P1075
Assay type: functional, cell-based
Binary classification by Efficacy, with 70% as an inclusive lower bound for Met; all other cases are Not met.

# MOLECULE, CATEGORY LABEL
records = [
    ("CC1(C)OCC2=C(C1=O)C(c1ccc(F)c(Br)c1)C1=C(O)OCC1=N2 (single isomer, unassigned; (+))", "Met"),
]

-- ask Answer whether Efficacy of CC(C)C[C@H]1OC(O)=C2C1=NC1=C(C(=O)COC1)[C@H]2c1ccc(F)c(Br)c1 (stereo in doubt; 31b) is greater than or equal to 70%.
-- reply Not met

-- ask Answer whether Efficacy of CCC1(CC)OCC2=NC3=C(C(=O)COC3)C(c3ccc(F)c(Br)c3)C2=C1O (stereo unspecified) is greater than or equal to 70%.
-- reply Not met

----------
MEASURED ON: Sulfonylurea receptor 2, Kir6.2 (Homo sapiens, UniProt O60706+Q14654)
TEST SUMMARY: Ability to open human urinary bladder Kir6.2 channel containing SUR2B in Ltk cells by FLIPR assay
Type: functional, cell-based
MEASUREMENT LABEL: EC50 (nM)
Numbers only, in nM.

# COMPOUND, MEASURED ON, MEASUREMENT LABEL, RESULT
data = [
    ("CC(C)C[C@H]1OC(O)=C2C1=NC1=C(C(=O)COC1)[C@H]2c1ccc(F)c(Br)c1 (stereo in doubt; 31a)", "Sulfonylurea receptor 2, Kir6.2 (Homo sapiens, UniProt O60706+Q14654)", "EC50", 2510),
    ("C[C@H]1OC(O)=C2C1=NC1=C(C(=O)COC1)[C@H]2c1ccc(F)c(Br)c1 (stereo in doubt; 18b)", "Sulfonylurea receptor 2, Kir6.2 (Homo sapiens, UniProt O60706+Q14654)", "EC50", 257),
    ("C[C@H]1OC(=O)C2=C1NC1=C([C@H]2c2ccc(F)c(Br)c2)S(=O)(=O)CC1 (relative stereo)", "Sulfonylurea receptor 2, Kir6.2 (Homo sapiens, UniProt O60706+Q14654)", "EC50", 407),
]

-- ask Suppose we examine the compound CC(C)C[C@H]1OC(O)=C2C1=NC1=C(C(=O)COC1)[C@H]2c1ccc(F)c(Br)c1 (stereo in doubt; 31b) ; what EC50 value has been reported?
-- reply 10000
